# credit: patent US9221822B2

Give IC50 for every item shown.
Test system: Human peripheral blood mononuclear cells (PBMCs) as Responder cells, RPMI 1788 Stimulator cells
protocolDetails: Mixed Lymphocyte Reaction (MLR) test
Assay type: cell-based
details: Homo sapiens, RPMI-1788, lowest concentration giving 50% inhibition of the MLR; 6 days coculture, 3H-thymidine incorporation

Input: // lookup IC50 for Nc1nc(N2CCN(C(=O)COc3ccc(F)cc3)CC2)c2nc(-c3ccco3)sc2n1
Output: 55 nM

Input: Please give the measured IC50 for this compound: Nc1nc(N2CCC(C(=O)c3ccccc3)CC2)c2cc(-c3ccc(F)cc3)sc2n1
Output: 8270 nM

Input: For Nc1nc(N2CCN(c3nccs3)CC2)c2nc(-c3ccc(F)cc3)sc2n1 , what is its reported IC50?
Output: > 10000 nM

Input: Can you look up the measured IC50 of Nc1nc(N2CCN(C(=O)COc3cccc([N+](=O)[O-])c3)CC2)c2nc(-c3ccc(F)cc3)sc2n1 for me?
Output: 290 nM

Input: Recorded IC50 for Cc1cccc(NC(=O)N2CCN(c3nc(N)nc4sc(-c5ccccc5)cc34)CC2)c1 , please?
Output: 930 nM

Input: Field request: IC50 | item: COc1ccccc1NC(=O)N1CCN(c2nc(N)nc3sc(-c4ccc(F)cc4)nc23)CC1
Output: 323 nM

Input: Field request: IC50 | item: CN(C(=O)CN1CCN(c2nc(N)nc3sc(CCc4ccc(F)cc4)nc23)CC1)c1ccccc1
Output: 3290 nM

Input: Entry under review: CCC(c1ccc(F)cc1)c1nc2c(N3CCN(C(=O)COc4ccc(Cl)cc4)CC3)nc(N)nc2s1 (stereo not shown) . Reported IC50?
Output: 5390 nM

Input: Please report the recorded IC50 for Cc1cccc(OCC(=O)N2CCN(c3nc(N)nc4sc(-c5cccnc5)nc34)CC2)c1 .
Output: 3 nM

Input: What does the record list as IC50 for CC(C)(Oc1ccc(Cl)cc1)C(=O)N1CCN(c2nc(N)nc3sc(-c4cccnc4)nc23)CC1 ?
Output: > 10000 nM

Input: What value of IC50 has been reported for the following compound? Nc1nc(N2CCN(C(=O)COc3ccc(Cl)cc3)CC2)c2nc(-c3cccnc3)sc2n1 [Example 121a]
Output: 50 nM

Input: Tell me the measured IC50 of Nc1nc(N2CCN(C(=O)COc3ccc(Cl)cc3)CC2)c2nc(-c3ccc(Cl)cc3)sc2n1 , please.
Output: 260 nM

Input: State the recorded IC50 for this entry: Nc1nc(N2CCN(C(=O)COc3cccc([N+](=O)[O-])c3)CC2)c2nc(-c3ccc(F)cc3)oc2n1
Output: 700 nM

Input: # input compound: Nc1nc(N2CCN(Cc3ccccc3)CC2)c2nc(-c3ccc(F)cc3)sc2n1 ; wanted: its IC50
Output: > 10000 nM

Input: If you can, please state the reported IC50 value of Nc1nc(N2CCN(C(=O)COc3ccc(Cl)cc3)CC2)c2nc(CCCc3ccc(F)cc3)sc2n1 .
Output: 960 nM

Input: IC50 lookup needed for Nc1nc(N2CC[C@@H](NC(=O)c3ccc(Cl)cc3)C2)c2cc(-c3ccc(F)cc3)sc2n1 , thanks.
Output: 7230 nM

###

Test system: Human peripheral blood mononuclear cells (PBMCs) as Responder cells, RPMI 1788 Stimulator cells
protocolDetails: Mixed Lymphocyte Reaction (MLR) test
Format: cell-based
details: Homo sapiens, RPMI-1788, lowest concentration giving 50% inhibition of the MLR; 6 days coculture, 3H-thymidine incorporation
measuredAttribute: pIC50
Worth noting: pIC50 values are minus log10 of concentrations stated in mol/L.

Input: Entry COc1ccc(OCC(=O)N2CCN(c3nc(N)nc4sc(CCc5cccc(OC)c5)nc34)CC2)cc1 [Example 253] : reported pIC50 = ?
Output: 6.15

Input: So what does the record say about pIC50 for Nc1nc(N2CCN(C(=O)COc3ccc(Cl)cc3)CC2)c2nc(C3(c4ccc(Cl)cc4)CC3)sc2n1 [Example 117] ?
Output: 5.60

Input: Look up pIC50 for this compound: CC(=O)c1ccc(OCC(=O)N2CCN(c3nc(N)nc4sc(CCc5ccc(F)cc5)nc34)CC2)cc1 [Example 227]
Output: 6.21

Input: Can you share its pIC50? I mean this compound: Nc1nc(N2CCN(C(=O)COc3ccc(Cl)cc3)CC2)c2nc(-c3ccc(Cl)cc3)[nH]c2n1 [Example 392]
Output: 6.27

###

Test system: Human peripheral blood mononuclear cells (PBMCs) as Responder cells, RPMI 1788 Stimulator cells
protocolDetails: Mixed Lymphocyte Reaction (MLR) test
Format: cell-based
details: Homo sapiens, RPMI-1788, lowest concentration giving 50% inhibition of the MLR; 6 days coculture, 3H-thymidine incorporation
Consider the following compounds; for each one, report its IC50.
Write the number in µM without appending the unit.

Input: For Nc1nc(N2CCN(Cc3ccc(F)cc3)CC2)c2nc(-c3ccc(F)cc3)[nH]c2n1 , what is its reported IC50?
Output: 9.86

Input: # get_value(readout='IC50', item= CSc1nc2c(N3CCN(C(=O)COc4ccc(Cl)cc4)CC3)nc(N)nc2n1C )
Output: 0.3

Input: Find the recorded IC50 belonging to Nc1nc(N2CCN(C(=O)COc3ccc(Br)cc3)CC2)c2nc(-c3ccc(F)cc3)sc2n1 and report it.
Output: 0.46

Input: Give its IC50 value. Item: Cc1cccc(OCC(=O)N2CCN(c3nc(N)nc4sc(-c5ccco5)nc34)CC2)c1
Output: 0.072

Input: Entry COc1ccc(OCC(=O)N2CCN(c3nc(N)nc4sc(CCc5ccc(OC)c(OC)c5)nc34)CC2)cc1 has what IC50?
Output: 1.14

Input: What value of IC50 has been reported for the following compound? Nc1nc(N2CCN(C(=O)COc3ccc(F)cc3)CC2)c2nc(-c3cccnc3)sc2n1
Output: 0.012

Input: Quick check: IC50 of Nc1nc(N2CCN(C(=O)COc3ccc(Cl)cc3)CC2)c2nc(SCc3ccccc3)[nH]c2n1 ?
Output: 3.28

Input: Please give the measured IC50 for this compound: COc1ccc(OCC(=O)N2CCN(c3nc(N)nc4sc(CCc5ccc(Br)cc5)nc34)CC2)cc1
Output: 1.19

Input: Please report the recorded IC50 for Nc1nc(N2CCN(C(=O)COc3ccc(Cl)cc3)CC2)c2cc(-c3ccc(F)cc3)sc2n1 .
Output: 0.7

Input: So what does the record say about IC50 for Nc1nc(N2CCCN(C(=O)COc3ccc(Cl)cc3)CC2)c2nc(CCc3ccc(F)cc3)sc2n1 ?
Output: 2.1

Input: Which IC50 value is on record for Nc1nc(N2CCN(C(=O)COc3ccc(O)cc3)CC2)c2nc(CCc3ccc(F)cc3)sc2n1 ?
Output: 1.1

Input: Look at this compound and give its reported IC50. Nc1nc(N2CCN(C(=O)COc3cccc(Cl)c3)CC2)c2nc(-c3ccc(F)cc3)sc2n1
Output: 0.121

Input: Need IC50 of CCCCc1nc(N2CCN(C(=O)COc3ccc(Cl)cc3)CC2)c2cc(-c3ccc(F)cc3)sc2n1 , thanks.
Output: 1.33

Input: Returns the measured IC50 for the input compound. Input: Nc1nc(N2CCN(C(=O)COc3ccc(OC(F)(F)F)cc3)CC2)c2nc(CCc3ccc(F)cc3)sc2n1
Output: 7.12

Input: Consider the compound N#Cc1ccc(NC(=O)N2CCN(c3nc(N)nc4sc(-c5ccc(F)cc5)nc34)CC2)cc1 and give its measured IC50.
Output: 0.019

###

Give IC50 for every item shown.
Test system: Human peripheral blood mononuclear cells (PBMCs) as Responder cells, RPMI 1788 Stimulator cells
protocolDetails: Mixed Lymphocyte Reaction (MLR) test
Format: cell-based
details: Homo sapiens, RPMI-1788, lowest concentration giving 50% inhibition of the MLR; 6 days coculture, 3H-thymidine incorporation
Express the result in µM but write the number alone.

Input: Would you mind telling me what IC50 value was observed for Nc1nc(N2CCN(c3nccs3)CC2)c2nc(-c3ccc(F)cc3)[nH]c2n1 [Example 409] ?
Output: 7.47

Input: Item Cn1c(-c2ccc(F)cc2)nc2c(N3CCN(C(=O)COc4ccc(Cl)cc4)CC3)nc(N)nc21 [Example 430] has what recorded IC50?
Output: 0.36

Input: # query: IC50 of entry Nc1nc(N2CCN(C(=O)COc3ccccc3)CC2)c2nc(-c3ccc(F)cc3)[nH]c2n1 [Example 401]
Output: 1.09

Input: Which IC50 reading was recorded for the compound Nc1nc(N2CCN(C(=O)Nc3ccc(Br)cc3)CC2)c2nc(-c3ccc(F)cc3)sc2n1 [Example 218] ?
Output: 0.177

Input: Give its IC50 value. Item: Nc1nc(N2CCN(c3ccc(F)cc3)CC2)c2nc(-c3ccc(F)cc3)[nH]c2n1 [Example 415]
Output: 4.16

Input: Looking for the measured IC50 of O=C(COc1ccc(Cl)cc1)N1CCN(c2ncnc3sc(CCc4ccc(F)cc4)nc23)CC1 [Example 303] , can you help?
Output: 5.59

Input: // query IC50 value for entry CC(C)N(C(=O)N1CCN(c2nc(N)nc3sc(-c4ccc(F)cc4)cc23)CC1)C(C)C [Example 347]
Output: 8.2

Input: So what's the measured IC50 for this one? Nc1nc(N2CCN(CCOc3ccccc3)CC2)c2nc(CCc3ccc(F)cc3)sc2n1 [Example 149]
Output: 5.76

Input: Which IC50 is reported for this compound? Nc1nc(N2CCN(C(=O)COc3ccc(Cl)cc3)CC2)c2nc(-c3cccc(Cl)c3)[nH]c2n1 [Example 393]
Output: 0.66

Input: Look at this compound and give its reported IC50. Nc1nc(N2CCN(C(=O)COc3ccc(Cl)cc3)CC2)c2nc(C3(c4ccccc4)CC3)sc2n1 [Example 114]
Output: 1.56

Input: What value of IC50 has been reported for the following compound? Nc1nc(N2CCN(C(=O)COc3ccc(Cl)cc3)CC2)c2nc(CCc3ccc(Br)cc3)sc2n1 [Example 299]
Output: 3.11
